Origin of measurements: patent US12077534B2

# EXPERIMENTAL_TARGET: MAT2A homodimer (Homo sapiens)
# Construct: inferred from Ni sepharose purification and imidazole elution
# Sequence (P31153 whole entry): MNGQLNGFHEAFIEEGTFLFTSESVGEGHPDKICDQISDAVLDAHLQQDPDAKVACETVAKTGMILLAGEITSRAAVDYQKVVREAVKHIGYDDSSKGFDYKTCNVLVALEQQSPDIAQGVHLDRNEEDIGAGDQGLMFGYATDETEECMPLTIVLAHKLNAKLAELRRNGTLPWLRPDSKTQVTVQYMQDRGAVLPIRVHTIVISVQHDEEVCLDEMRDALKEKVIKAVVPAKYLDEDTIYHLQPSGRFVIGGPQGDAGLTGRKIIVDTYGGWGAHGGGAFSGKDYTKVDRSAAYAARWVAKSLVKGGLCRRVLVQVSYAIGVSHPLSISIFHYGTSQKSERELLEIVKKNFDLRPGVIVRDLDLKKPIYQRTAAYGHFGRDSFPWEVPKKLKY
# ASSAY_INFO: MAT2A biochemical assay (phosphate release, PiColorLock Gold)
# CONDITIONS_USED: recombinant MAT2A homodimer, 60 min pre-incubation, 25° C.; read-out: Enzyme Inhibition
pIC50: −log10 of the molar value.
pIC50 values by entry

Known results for compounds:
CC(C)Oc1ccc2nn(-c3ccc4ncsc4c3)c(=O)c(-c3ccc(OC(F)F)cc3)c2n1	> 7.00
CNC(=O)c1ccc(-n2nc3ccc(OCC(F)F)nc3c(-c3ccc(OC(F)F)cc3)c2=O)cc1	> 7.00
Cn1cc2cc(-n3nc4cc(F)c(OCC(F)F)nc4c(-c4ccc(OC(F)F)cc4)c3=O)ccc2n1	> 7.00

Shift focus to the following entry.
Which pIC50 value is on record for Cn1cc(-n2nc3ccc(NCC(F)(F)F)nc3c(-c3ccc(C(F)F)nc3)c2=O)ccc1=O ? 6.00 to 7.00
